The reported measurements were obtained from patent US20220025056A1.

# measuredOn: T1, human ILT6 (LILRA3) on CHO cells (human, UniProt Q8N6C8 24-434)
# T1 construct: also called CHO ILT6 cell line; human ILT-6 polypeptide
# methodSummary: flow cytometry, CHO transfectants
observable: binding result

4C11B (antibody, human IgG1, V domains shown) VH: QVQLKESGPELVKPGASVKISCKASGYSFTNYYIHWVKQRPGQGLEWIGWIFPGSGETNYSEKFKGEAILTADTSSNTAYMQLSSLTSEDSAVYFCARSWNYDARWGYWGQGTTLTVSS VL: QIVLSQSPVSLAVSPGQRATISCRASESIDSYGISFMHWYKQKPGQPPKLLIYRASNLESGIPARFSGSGSRTDFTLTINPVEADDVATYYCQQSNEDPFTFGSGTKLEIK ... no binding
3E9B (antibody, human IgG1, V domains shown) VH: EVQLQESGPELVKPGASVKISCKTSGYSFTNYYIHWVKQRPGQGLEWIGWIFPGSGETNYNEKFKGKATLSADTSSTTAYMQLSSLTSEDSAVYFCARTWNYDARWGYWGQGTTVTVSS VL: EILLTQSPASLAVSLGQRATISCRASETIDSYGISFMHWYQQKPGQPPKLLIYRASNLESGIPARFSGSGSRTDFTLTINPVEADDVATYYCQQSNEDPFTFGSGTKLEIK ... no binding
27H5 (antibody, human IgG1, V domains shown) VH: QVQLKESGPGLVAPSQSLSITCTVSGFSLTSYGVSWVRQPPGKGLEWLGVIWGDGNTNYHSALISRLSISKDNSKSQVFLKLNSLQTDDTATYYCARTNWDGWFAYWGQGTLVTVSA VL: DIVMTQSHKFMSTSVGDRVSITCKASQDVGTAVAWYQQKPGQSPKLLIYWASTRHTGVPDRFTGSGSGTDFTLTISNVQSEDLADYFCQQYRSYPLGTFGGGTKLEIK ... no binding
